Measured kon values are reported for all entries that follow.
# TARGET: T1, Histidine-tagged human PD-1 protein (hPD-1-His) (human, UniProt Q15116 25-170, limits assumed)
# T1 construct: Soluble analyte in SPR; not shown: histidine tag
# T1 sequence (Q15116 25-170 limits assumed): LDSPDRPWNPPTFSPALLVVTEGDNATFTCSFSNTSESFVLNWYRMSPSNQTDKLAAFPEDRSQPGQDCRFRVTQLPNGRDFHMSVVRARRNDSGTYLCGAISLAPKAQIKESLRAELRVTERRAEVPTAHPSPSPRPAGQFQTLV
# PROTOCOL_SUMMARY: SPR (Biacore T200), antibody captured on Protein A chip, hPD-1-His analyte, 1:1 fit

BINDER: 1A7-H3K3-IgG4-S228P (antibody, V domains shown, Humanized; human IgG4 constant domains with S228P (EU numbering)) VH: EVKLVESGGGLVQPGGSLRLSCAASGFTFSSYSMSWVRQAPGKRLEWVAHISSGGSSTYYPDTVKGRFTISRDNSKNTLYLQMNSLRAEDTAMYYCTRQFYYGSSFWYFDVWGAGTTVTVSS VL: DNVLTQSPATLSVSPGERATLSCKASQSVDFDGDSYMNWYQQKPGQPPRLLIYAASNLESGIPARFSGSGSGTDFTLTISSVEPEDFATYYCQQSNEDPPTFGGGTKVEIK
kon: 102000 M⁻¹ s⁻¹

BINDER: 1A7-H2K1-IgG4-S228P (antibody, V domains shown, Humanized; human IgG4 constant domains with S228P (EU numbering)) VH: EVQLVESGGGLVQPGGSLRLSCAASGFTFSSYSMSWVRQAPGKRLEWVAHISSGGSSTYYPDTVKGRFTISRDNSKNTLYLQMNSLRAEDTAMYYCTRQFYYGSSFWYFDVWGAGTTVTVSS VL: DNVLTQSPATLSLSPGERATLSCKASQSVDFDGDSYMNWYQQKPGQPPRLLIYAASNLESGIPARFSGSGPGTDFTLTISSLEPEDFATYYCQQSNEDPPTFGGGTKVEIK
kon: 48900 M⁻¹ s⁻¹

BINDER: 3F1-H1K2-IgG4-S228P (antibody, V domains shown, Humanized; human IgG4 constant domains with S228P (EU numbering)) VH: QVQLQQSGAEVKKPGASVKMSCKASGYTFTSYWMHWVRQAPGQGLEWIGYINPSTGYTEYNQKFKDRATLTADTSTSTAYMELSSLRSEDTAVYYCARGVRYYFDYWGQGTLVTVSS VL: DIVMTQSPDSLAVSLGERATMSCKSSQSLLNSRTRKNYLAWYQQKPGQSPKLLIYWASTRESGVPDRFSGSGSGTDFTLTISSVQAEDVAVYYCKQSYNLLTFGQGTKLELK
kon: 5270 M⁻¹ s⁻¹
